These entries and their values trace back to paper PMC2988379.

MEASURED_ON: PimB′ (Corynebacterium glutamicum PimB′, NCgl2106) (Corynebacterium glutamicum, UniProt Q8NNK8, D13A)
Sequence (Q8NNK8 1-381 D13A): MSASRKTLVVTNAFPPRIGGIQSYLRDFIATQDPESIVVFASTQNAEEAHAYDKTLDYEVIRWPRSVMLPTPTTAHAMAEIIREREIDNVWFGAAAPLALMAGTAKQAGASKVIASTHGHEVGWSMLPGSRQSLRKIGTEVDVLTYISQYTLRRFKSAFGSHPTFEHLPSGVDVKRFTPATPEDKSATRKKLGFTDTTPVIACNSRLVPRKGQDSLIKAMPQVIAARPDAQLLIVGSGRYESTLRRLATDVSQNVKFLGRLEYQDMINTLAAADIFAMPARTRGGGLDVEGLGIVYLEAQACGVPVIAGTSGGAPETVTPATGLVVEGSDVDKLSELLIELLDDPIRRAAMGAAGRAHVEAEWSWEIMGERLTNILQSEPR
ASSAY_NAME: intrinsic Trp fluorescence titration
METRIC: Kd (µM)

• Nc1nc2c(ncn2[C@@H]2O[C@H](COP(=O)(O)OP(=O)(O)O[C@H]3O[C@H](CO)[C@@H](O)[C@H](O)[C@@H]3O)[C@@H](O)[C@H]2O)c(=O)[nH]1 = 42.8

---

MEASURED_ON: PimB′ (Corynebacterium glutamicum PimB′, NCgl2106) (Corynebacterium glutamicum)
ASSAY_NAME: intrinsic Trp fluorescence titration
Assay type: binding
pKd: −log10 of the molar value.
METRIC: pKd

* Nc1nc2c(ncn2[C@@H]2O[C@H](COP(=O)(O)OP(=O)(O)O)[C@@H](O)[C@H]2O)c(=O)[nH]1 | 4.44

---

MEASURED_ON: PimB′ (Corynebacterium glutamicum PimB′, NCgl2106) (Corynebacterium glutamicum, UniProt Q8NNK8, D13N)
ASSAY_NAME: intrinsic Trp fluorescence titration
Assay type: binding
pKd: −log10 of the molar value.
METRIC: pKd

- Nc1nc2c(ncn2[C@@H]2O[C@H](COP(=O)(O)OP(=O)(O)O[C@H]3O[C@H](CO)[C@@H](O)[C@H](O)[C@@H]3O)[C@@H](O)[C@H]2O)c(=O)[nH]1: 4.52

---

MEASURED_ON: PimB′ (Corynebacterium glutamicum PimB′, NCgl2106) (Corynebacterium glutamicum, UniProt Q8NNK8, S205G)
ASSAY_NAME: intrinsic Trp fluorescence titration
METRIC: Kd (µM)

* Nc1nc2c(ncn2[C@@H]2O[C@H](COP(=O)(O)OP(=O)(O)O[C@H]3O[C@H](CO)[C@@H](O)[C@H](O)[C@@H]3O)[C@@H](O)[C@H]2O)c(=O)[nH]1 [GDP-Man] | 18.7

---

MEASURED_ON: PimB′ (Corynebacterium glutamicum PimB′, NCgl2106) (Corynebacterium glutamicum, UniProt Q8NNK8, R206S)
ASSAY_NAME: intrinsic Trp fluorescence titration
pKd: −log10 of the molar value.
METRIC: pKd

• Nc1nc2c(ncn2[C@@H]2O[C@H](COP(=O)(O)OP(=O)(O)O[C@H]3O[C@H](CO)[C@@H](O)[C@H](O)[C@@H]3O)[C@@H](O)[C@H]2O)c(=O)[nH]1 = 4.37

---

MEASURED_ON: PimB′ (Corynebacterium glutamicum PimB′, NCgl2106) (Corynebacterium glutamicum, UniProt Q8NNK8, G291S)
ASSAY_NAME: intrinsic Trp fluorescence titration
pKd: −log10 of the molar value.
METRIC: pKd

• Nc1nc2c(ncn2[C@@H]2O[C@H](COP(=O)(O)OP(=O)(O)O[C@H]3O[C@H](CO)[C@@H](O)[C@H](O)[C@@H]3O)[C@@H](O)[C@H]2O)c(=O)[nH]1 = 4.16

---

MEASURED_ON: PimB′ (Corynebacterium glutamicum PimB′, NCgl2106) (Corynebacterium glutamicum)
ASSAY_NAME: intrinsic Trp fluorescence titration
Type: binding
METRIC: Kd (µM)

- Nc1nc2c(ncn2[C@@H]2O[C@H](COP(=O)(O)OP(=O)(O)O[C@H]3O[C@H](CO)[C@@H](O)[C@H](O)[C@@H]3O)[C@@H](O)[C@H]2O)c(=O)[nH]1 [GDP-Man]: 19

---

MEASURED_ON: PimB′ (Corynebacterium glutamicum PimB′, NCgl2106) (Corynebacterium glutamicum, UniProt Q8NNK8, G20W)
ASSAY_NAME: intrinsic Trp fluorescence titration
METRIC: Kd (µM)

- Nc1nc2c(ncn2[C@@H]2O[C@H](COP(=O)(O)OP(=O)(O)O[C@H]3O[C@H](CO)[C@@H](O)[C@H](O)[C@@H]3O)[C@@H](O)[C@H]2O)c(=O)[nH]1: 21.9
